These entries and their values trace back to patent US20250288561A1.

test: Phase 1 open-label study: plasma PK of single inhaled nezulcitinib doses under supplemental oxygenation scenarios
Type: in vivo, human
measurement setup: human, plasma, inhaled, 3 mg, Administration C: single 3 mg, oral inhalation, high-flow nasal cannula oxygen 30 L/min; plasma; arithmetic mean; read-out: Vz/F
test readout: Vd/F
Quote the value and follow it with the unit of measurement.

Please report the recorded Vd/F for `CCc1cc(O)ccc1-c1ccc2c(-c3nc4c([nH]3)CN(C(C)C)[C@H](C(=O)N3CC(N(C)C)C3)C4)n[nH]c2c1` .
3920 L

----------
test: Phase 1 open-label study: plasma PK of single inhaled nezulcitinib doses under supplemental oxygenation scenarios
Type: in vivo, human
measurement setup: human, plasma, inhaled, 9 mg, Administration D2: single 9 mg, oral inhalation, high-flow nasal cannula oxygen 50 L/min; plasma; arithmetic mean; read-out: AUC0-24
Description: Part A: assessed the plasma PK of nezulcitinib following single inhaled doses administered in the setting of various supplemental oxygenation scenarios in healthy participants. This was a Phase 1, open-label, fixed-sequence, 4-period study to evaluate the PK and safety of single inhaled doses of nezulcitinib, administered under different supplemental oxygenation scenarios. […] The following non-compartmental PK parameters were calculated for nezulcitinib, as appropriate: […]
test readout: AUC(0-t) (µg·h/mL)
Supply the numeric figure in µg·h/mL, leaving out any unit text.

Reported AUC(0-t), molecule CCc1cc(O)ccc1-c1ccc2c(-c3nc4c([nH]3)CN(C(C)C)[C@H](C(=O)N3CC(N(C)C)C3)C4)n[nH]c2c1 [Compound 1] : ____
0.141

----------
test: Phase 1 open-label study: plasma PK of single inhaled nezulcitinib doses under supplemental oxygenation scenarios
Format: in vivo, human
measurement setup: human, inhaled; Administration B: single 3 mg, oral inhalation, low-flow nasal cannula oxygen 6 L/min; plasma; median; read-out: Tmax
test readout: Tmax (h)
Lab book: enter the figure in h, no units written.

Give its Tmax value. Item: `CCc1cc(O)ccc1-c1ccc2c(-c3nc4c([nH]3)CN(C(C)C)[C@H](C(=O)N3CC(N(C)C)C3)C4)n[nH]c2c1`
1
